Biological target: COX II
Assay: Assay for COX II activity (PGE2 ELISA, recombinant enzyme)
Details: arachidonic acid (10 μM), pre-incubated 10-20 minutes, pH 8.0; read-out: COX II ID50
Text: A 2.0 kb fragment containing the coding region of either human or murine COX-I or human or murine COX-II was cloned into a BamH1 site of the baculovirus transfer vector pVL1393 (Invitrogen) to generate the baculovirus transfer vectors for COX-I and COX-II in a manner similar to the method of D. R. O'Reilly et al (Baculovirus Expression Vectors: A Laboratory Manual (1992)). […]
pIC50: −log10 of the molar value.

Record Smiles: CC1(C)C=C(c2ccc(F)cc2)C(c2ccc(S(C)(=O)=O)cc2)=C1
pIC50: 7.30
